# Tested on: TK-10 renal
# ASSAY_COMMENT: NCI-60 one-dose screen, 48 h
# CONDITION_NOTES: 10 µM unless noted
About 83,000 compounds went through this panel and 20% of them were active in at least one assay; those are over-represented in the sample as a whole. Calls of active or inactive are those of the source. The calls were made as follows: active = growth percent below 10; inactive = the rest.
A correct response names exactly one class from Yes (active), No (inactive)

C=C(C)[C@@H]1CC[C@]2(C(N)=O)CC[C@]3(C)[C@H](CC[C@@H]4[C@@]5(C)CC[C@H](O)C(C)(C)[C@@H]5CC[C@]43C)[C@@H]12    Yes

# input Check the results log: what was the call for Nn1c(Nc2ccc(S(=O)(=O)Nc3ncccn3)cc2)nnc(/C=C/c2c(O)ccc3ccccc23)c1=O ?
# output No

# input Repeat for the following molecule: O=C(Nc1cc(-c2cccnc2)nc(NCCCN2CCOCC2)n1)c1cc(Br)cc(C(F)(F)F)c1
# output No

# input Query Cc1cccc(/C=C2\N=C(c3ccccc3)N(c3ccc(S(N)(=O)=O)cc3)C2=O)c1 next
# output No

# input Quick one: CCOc1ccc(/C=C(\C#N)c2cc3ccccc3[nH]2)cc1
# output No

# input What do you have for COc1ccc2nc3cc(Cl)ccc3c(Nc3ccc(O)c(CN4CCCC4)c3)c2c1 ?
# output No

# input Ok, now O=C1CC(c2ccc3c(c2)OCO3)Nc2ccccc21 (stereo not drawn)
# output No

# input Let us now turn to C=C(C)[C@@H]1CC[C@]2(C(=O)OC)CC[C@]3(C)[C@H](CC[C@@H]4[C@@](C)(CCc5nn[nH]n5)[C@H](C(=C)C)CC[C@]43C)[C@@H]12
# output Yes

* * *

# Test system: SK-MEL-2 melanoma
# ASSAY_COMMENT: NCI-60 one-dose screen, 48 h
# CONDITION_NOTES: 10 µM unless noted
This is part of a sample that, as a whole, favours compounds with a hit. Of some 83,000 tested, about 20% had one in any assay. Activity calls are given as the source filed them. How the source made its calls: active means growth percent below 10; inactive means the rest.
Field 'call' accepts 1 (yes) (active), 0 (no) (inactive)

Examples from the recorded data:
Cn1cc(-c2noc(-c3cn(C)c4ncc(F)cc34)n2)c2cc(Cl)ccc21    0 (no)
CC(C)C1=NOC(=O)C1=Cc1cn(-c2cccnc2)nc1-c1ccccc1    0 (no)
CC(C)(C)c1cc(C(=O)Nc2ccccc2C(=O)NCCN)cc(C(C)(C)C)c1    0 (no)
CC(C)[C@H]1COC(=O)N1[C@@H]1C(=O)N([C@@H](CCC(=O)N2CCN(C3CCCC3)CC2)C(=O)N[C@@H]2CCCc3ccccc32)[C@@H]1/C=C/c1cccc(Cl)c1    0 (no)
O=c1c2c3c(sc2n2cnnc2n1Cc1ccccc1)CCCC3    0 (no)
ClC1=C(Cl)C(Cl)=C(Cl)C1=Cc1ccccc1    1 (yes)
NS(=O)(=O)c1ccc(CCN2C(=O)/C(=C\c3ccccc3)C=C2c2ccc(Cl)cc2)cc1    0 (no)
CCN(CC)CCCNCc1cc(-c2ccccc2)nc2ccccc12    0 (no)
COC(=O)[C@H](CC(C)C)NC(=O)NC(=O)NC(=O)CI    0 (no)
Cc1ccc(-c2cc(-c3ccc(C)cc3)nc(NCCNc3ccnc4cc(Cl)ccc34)n2)cc1    1 (yes)

Switching to the query record.
# input Hi, sorry to bother you, what did the test record for COc1cc2c(cc1OCCCCCOc1ccc(-n3c(C)nc4ccccc4c3=O)cc1)N=C[C@@H]1CCCN1C2=O ?
# output 1 (yes)
